// data source = the Human Domainome abundance scans (Beltran et al. 2025)

Exercise: state measured abundance fitness for each of the variants provided.
B1: Storkhead-box protein 2, residues 64 to 141; numbered along this chain, Q9P2F5 (parent)
chain: SPISQSQFIPLGEILCLAISAMNSARKPVTQEALMEHLTTCFPGVPTPSQEILRHTLNTLVRERKIYPTPDGYFIVTP

Variants of: B1
Assay: abundance fitness (aPCA) (normalised: wild type 0, dead -1); higher = more abundant; growth selection in yeast, the domain comes from the species named
Settings: Homo sapiens

Please report the recorded abundance fitness for SPISQSQFIPLGEILCLAISAMNSARKPVTQEALMEHLTTCFPGVPTPSQEILRHTLNTLVRERGIYPTPDGYFIVTP [K65G] .
-0.541

Look at this variant and give its reported abundance fitness. SPISQSQFIPLGEILCLAISAMNSARKPVTQEALMEHLTTCFPGVPTPSQEILRHTLNTLVRERKIWPTPDGYFIVTP [Y67W]
-0.049

Recorded abundance fitness of SPISQSQFIPLGEILCLAISAMNSARKPVTQEALMEHLTTCFPMVPTPSQEILRHTLNTLVRERKIYPTPDGYFIVTP [G44M] , please.
-0.024

Given the variant SPISQSQFIPLGELLCLAISAMNSARKPVTQEALMEHLTTCFPGVPTPSQEILRHTLNTLVRERKIYPTPDGYFIVTP [I14L] , what is its reported abundance fitness?
-0.035

Requested read-out: abundance fitness. Entry: SPISQSQFIPLGEILCLAISAMNSARKPVTQEALMEHSTTCFPGVPTPSQEILRHTLNTLVRERKIYPTPDGYFIVTP [L38S]
-0.613

Requested read-out: abundance fitness. Entry: SPISQSQFIPLGEILCLAASAMNSARKPVTQEALMEHLTTCFPGVPTPSQEILRHTLNTLVRERKIYPTPDGYFIVTP [I19A]
-0.341

Would you mind telling me what abundance fitness value was observed for SPISQSQFIPLGEILCLAISAMNSARVPVTQEALMEHLTTCFPGVPTPSQEILRHTLNTLVRERKIYPTPDGYFIVTP [K27V] ?
-0.079

Any idea what abundance fitness was measured for SPISQSQFIPLGEILCLAISAMNSARKPVTQEALMEHLTTCWPGVPTPSQEILRHTLNTLVRERKIYPTPDGYFIVTP [F42W] ?
-0.086

So what's the measured abundance fitness for this one? SPISQSQFIPLGEILCLAISAMNSARKPVTQEALMEHLTTCFPGVPTKSQEILRHTLNTLVRERKIYPTPDGYFIVTP [P48K]
-0.44

Give the measured abundance fitness of SPISQSQFIPLGEILCLAISAMNSARKPVTQEQLMEHLTTCFPGVPTPSQEILRHTLNTLVRERKIYPTPDGYFIVTP [A33Q] .
0.009

Could you tell me which abundance fitness is on file for SPISQSQFIPLGEILCLAIGAMNSARKPVTQEALMEHLTTCFPGVPTPSQEILRHTLNTLVRERKIYPTPDGYFIVTP [S20G] ?
-0.039

For the variant SPISQSQFIPLGEILCLAISAMNSARKPVTQEALMEHLTTCFPGVPTPSQEILRHTLNTLVRERKIYPTPDSYFIVTP [G72S] , what abundance fitness is on record?
-0.121

What does the record list as abundance fitness for SPISQSQFIPLGEILCLAISAMNSARKPSTQEALMEHLTTCFPGVPTPSQEILRHTLNTLVRERKIYPTPDGYFIVTP [V29S] ?
-0.065

Would you mind telling me what abundance fitness value was observed for SPISQSQPIPLGEILCLAISAMNSARKPVTQEALMEHLTTCFPGVPTPSQEILRHTLNTLVRERKIYPTPDGYFIVTP [F8P] ?
-0.081

Which abundance fitness reading was recorded for the variant SPISQSQFIPLGEILCLAISAMNSARKPVTPEALMEHLTTCFPGVPTPSQEILRHTLNTLVRERKIYPTPDGYFIVTP [Q31P] ?
0.018

Which measured abundance fitness value corresponds to SPISQSQFIPLGEILCLAISAMNSARKPVTQEALMEHLTTCFPGVPTPSQEILRHTLNTLVRERKIYPTPDGYHIVTP [F74H] ?
-0.248

Recorded abundance fitness of SPISQSQFIPLGEILCLWISAMNSARKPVTQEALMEHLTTCFPGVPTPSQEILRHTLNTLVRERKIYPTPDGYFIVTP [A18W] , please.
-0.496

May I ask what abundance fitness has been recorded for SPISQSQFIPLGEILCLAISAMNSARKPVTQEALMEHLTTCFPGVPTPSQEILRHTLNTLVRERKIMPTPDGYFIVTP [Y67M] ?
0.102

Which value of abundance fitness has been reported for SPISQSQFIPLGEILCLAISAMNSARKPVTQEALMEHLTTCFPGVPTPSQEILRHTLNTLVRERKIYPTPDGYFIVNP [T77N] in the records?
0.059

I'd like to know its abundance fitness. The variant in question is SPISQSQFIPLGEILCLAISAMNSARKPVTQEALMEHLTECFPGVPTPSQEILRHTLNTLVRERKIYPTPDGYFIVTP [T40E]
-0.048

Which abundance fitness is listed for SPISQSQFIPLGEILCLAISAMNSARKPVTQEALMEHLTTKFPGVPTPSQEILRHTLNTLVRERKIYPTPDGYFIVTP [C41K] ?
-0.11

# query: abundance fitness of entry SPISQSQFIPLGEILCLAISAMNSARKPVTQEYLMEHLTTCFPGVPTPSQEILRHTLNTLVRERKIYPTPDGYFIVTP [A33Y]
-0.167

Entry under review: SPISQSQFIPLGEILCLAISAMNSARKPVTQEALMEHLTTCFPGVPTPSQEILRHTLNTLVRERKIYPTPDGYFIVAP [T77A] . Reported abundance fitness?
-0.019

Any idea what abundance fitness was measured for SPISQSQFIPLGEILCLAISAMNSARKPVTQEALMEHLTTCFPGVPTRSQEILRHTLNTLVRERKIYPTPDGYFIVTP [P48R] ?
-0.415

Tell me the measured abundance fitness of SPISQSQTIPLGEILCLAISAMNSARKPVTQEALMEHLTTCFPGVPTPSQEILRHTLNTLVRERKIYPTPDGYFIVTP [F8T] , please.
-0.08

What value of measured abundance fitness is listed for SPISQSQFIPLGEILCLAISAMNSARKPVTQEALMEHLTTCFPGVPTPSQEILRHTANTLVRERKIYPTPDGYFIVTP [L57A] ?
-0.576

Return reported abundance fitness; argument: SPISQSQFIPLGEILCLAISAMNSARKPVTQEALMEHLTTCVPGVPTPSQEILRHTLNTLVRERKIYPTPDGYFIVTP [F42V]
-0.045

What value of abundance fitness has been recorded for this entry: SPISQSQFIPLGEILCLAISAMNSARKPVTQEALMEHLTTCFPGVPTPSQEILRHTLNTLVRERKIYPTPDGYFVVTP [I75V]
0.024

Need abundance fitness, item SPISQGQFIPLGEILCLAISAMNSARKPVTQEALMEHLTTCFPGVPTPSQEILRHTLNTLVRERKIYPTPDGYFIVTP [S6G]
-0.041

Please look up its abundance fitness: SPISQSQFIPLGEILCLAISAMNSARKPVTQEALMEHLTTCFPGVPTPSQEILVHTLNTLVRERKIYPTPDGYFIVTP [R54V]
-0.012

Could you tell me which abundance fitness is on file for SPISQSQFIPLGEILCLAISLMNSARKPVTQEALMEHLTTCFPGVPTPSQEILRHTLNTLVRERKIYPTPDGYFIVTP [A21L] ?
-0.305

Looking for the measured abundance fitness of SPISQSQFIPLGEILCLAISVMNSARKPVTQEALMEHLTTCFPGVPTPSQEILRHTLNTLVRERKIYPTPDGYFIVTP [A21V] , can you help?
-0.167

Need abundance fitness, item SPISQSQFIPLGEILCLAISAMNNARKPVTQEALMEHLTTCFPGVPTPSQEILRHTLNTLVRERKIYPTPDGYFIVTP [S24N]
0.063

# abundance fitness lookup, item SPISQSQFIPLGEILQLAISAMNSARKPVTQEALMEHLTTCFPGVPTPSQEILRHTLNTLVRERKIYPTPDGYFIVTP [C16Q]
0.072

What measured abundance fitness goes with SPISQSQFIPLGEILCLAISAMNSARKPVTQEAGMEHLTTCFPGVPTPSQEILRHTLNTLVRERKIYPTPDGYFIVTP [L34G] ?
-1.09

Any idea what abundance fitness was measured for SPISQSQFIPLGEILCLAISAFNSARKPVTQEALMEHLTTCFPGVPTPSQEILRHTLNTLVRERKIYPTPDGYFIVTP [M22F] ?
-0.201

Quick one: abundance fitness of SPISQSQFIPLGEILCLAISAMNSARKPVTQEALMEHLITCFPGVPTPSQEILRHTLNTLVRERKIYPTPDGYFIVTP [T39I] ?
0.04

Which abundance fitness value belongs to SPISQSQFIPLGEILCLEISAMNSARKPVTQEALMEHLTTCFPGVPTPSQEILRHTLNTLVRERKIYPTPDGYFIVTP [A18E] ?
-0.102

I would be grateful if you could share the reported abundance fitness for SPISQSQFIPLGEILCLAISAMNSARKPVTQEALMEHLTTSFPGVPTPSQEILRHTLNTLVRERKIYPTPDGYFIVTP [C41S] .
0.021

# get_value(readout='abundance fitness', item= SPISQSQFIPLGEILCLAISAMNSAEKPVTQEALMEHLTTCFPGVPTPSQEILRHTLNTLVRERKIYPTPDGYFIVTP [R26E] )
-0.016

State the recorded abundance fitness for this entry: SPISQSQFIPLGEILCLAISAMNSARKPVTQEALMEHLTTCFAGVPTPSQEILRHTLNTLVRERKIYPTPDGYFIVTP [P43A]
-0.137

Param item = SPISQSQFIPLGEILCLAISAMNSARKPVTQEALMEHLTTCFPGVPTPSQEILRHTLNTLVREWKIYPTPDGYFIVTP [R64W] ; retrieve measured abundance fitness.
-0.211

Look up abundance fitness for this variant: SPISQSQFIPLGEILCLAISAMNSARKPVTQEALMEHLTTCFPGVPTPSQELLRHTLNTLVRERKIYPTPDGYFIVTP [I52L]
-0.05

Which abundance fitness is reported for this variant? SPISQSHFIPLGEILCLAISAMNSARKPVTQEALMEHLTTCFPGVPTPSQEILRHTLNTLVRERKIYPTPDGYFIVTP [Q7H]
-0.122

Which value of abundance fitness has been reported for SPISQSQFIPLGEILCLAISAMNSARKPVTQRALMEHLTTCFPGVPTPSQEILRHTLNTLVRERKIYPTPDGYFIVTP [E32R] in the records?
-0.077

# get_value(readout='abundance fitness', item= SPISQSQFIPLGEILCLAISAMNSARKPVTQEALMEHLTTCFPGVPTPSQEILRHTLNTLVRERKIYPTPDAYFIVTP [G72A] )
-0.304
